Numbers sourced from the supplement of paper PMC8728848.

Biological target: Fuc(a1-2)Gal(b1-3)[Fuc(a1-4)]GlcNAc(b1-3)[Gal(b1-4)GlcNAc(b1-6)]Gal(b1-4)Glc
Assay: glycan array binding signal (z-score within array); higher = stronger binding
Settings: glycan notation: IUPAC condensed, linker removed
The sample as a whole holds a higher share of the strongest signals than the screen did.
metric name: glycan array binding signal (z-score)
Output spec: single numeric token, no unit.

Prompt line: Return value of glycan array binding signal (z-score) for input EUL D1A (Oryza sativa) (protein) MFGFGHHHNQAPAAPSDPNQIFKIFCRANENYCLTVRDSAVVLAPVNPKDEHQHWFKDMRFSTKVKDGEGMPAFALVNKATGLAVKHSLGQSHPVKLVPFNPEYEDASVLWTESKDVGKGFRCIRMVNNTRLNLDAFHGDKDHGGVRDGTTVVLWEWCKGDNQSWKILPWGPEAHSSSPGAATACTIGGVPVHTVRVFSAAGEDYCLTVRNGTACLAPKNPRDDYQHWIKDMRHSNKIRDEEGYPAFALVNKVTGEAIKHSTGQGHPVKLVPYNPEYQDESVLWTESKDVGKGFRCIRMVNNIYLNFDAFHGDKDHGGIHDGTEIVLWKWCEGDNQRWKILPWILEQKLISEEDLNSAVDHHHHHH , no commentary.
Response line: 1.23

Prompt line: Return value of glycan array binding signal (z-score) for input EUL D1A second (Oryza sativa) (protein) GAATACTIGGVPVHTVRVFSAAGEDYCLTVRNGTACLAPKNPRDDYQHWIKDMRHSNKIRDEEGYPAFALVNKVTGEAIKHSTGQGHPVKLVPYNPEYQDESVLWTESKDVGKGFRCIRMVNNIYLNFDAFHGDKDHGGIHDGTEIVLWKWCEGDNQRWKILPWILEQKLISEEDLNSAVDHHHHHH , no commentary.
Response line: 1.09
